- TEST PARAMETERS: in isopropanol, 323.15 K
MEASURE: solubility (mole fraction)

Enquiry: # return recorded solubility (mole fraction) for input CS(=O)(=O)c1ccc([C@@H](O)[C@@H](CF)NC(=O)C(Cl)Cl)cc1
Return: 0.00457

====

- TEST PARAMETERS: in propionic acid, 288.15 K
MEASURE: solubility (mole fraction)
# output: bare number, no unit

Enquiry: # return recorded solubility (mole fraction) for input CS(=O)(=O)c1ccc([C@@H](O)[C@@H](CF)NC(=O)C(Cl)Cl)cc1
Return: 0.000347

====

- TEST PARAMETERS: in isopentanol, 323.15 K
MEASURE: solubility (mole fraction)
# output: bare number, no unit

Enquiry: # return recorded solubility (mole fraction) for input CS(=O)(=O)c1ccc([C@@H](O)[C@@H](CF)NC(=O)C(Cl)Cl)cc1
Return: 0.00285
